target: Recombinant Human NF-kappaB-Inducing Kinase (NIK/MAP3K14) (Homo sapiens, UniProt Q99558); assay: Biological Assay A2: inhibition of auto-phosphorylation of recombinant human NIK/MAP3K14 (AlphaScreen); assay type: biochemical; settings: auto-phosphorylation; averaged over all measurements on all batches; read-out: αscreen IC50
Sequence (Q99558 whole entry): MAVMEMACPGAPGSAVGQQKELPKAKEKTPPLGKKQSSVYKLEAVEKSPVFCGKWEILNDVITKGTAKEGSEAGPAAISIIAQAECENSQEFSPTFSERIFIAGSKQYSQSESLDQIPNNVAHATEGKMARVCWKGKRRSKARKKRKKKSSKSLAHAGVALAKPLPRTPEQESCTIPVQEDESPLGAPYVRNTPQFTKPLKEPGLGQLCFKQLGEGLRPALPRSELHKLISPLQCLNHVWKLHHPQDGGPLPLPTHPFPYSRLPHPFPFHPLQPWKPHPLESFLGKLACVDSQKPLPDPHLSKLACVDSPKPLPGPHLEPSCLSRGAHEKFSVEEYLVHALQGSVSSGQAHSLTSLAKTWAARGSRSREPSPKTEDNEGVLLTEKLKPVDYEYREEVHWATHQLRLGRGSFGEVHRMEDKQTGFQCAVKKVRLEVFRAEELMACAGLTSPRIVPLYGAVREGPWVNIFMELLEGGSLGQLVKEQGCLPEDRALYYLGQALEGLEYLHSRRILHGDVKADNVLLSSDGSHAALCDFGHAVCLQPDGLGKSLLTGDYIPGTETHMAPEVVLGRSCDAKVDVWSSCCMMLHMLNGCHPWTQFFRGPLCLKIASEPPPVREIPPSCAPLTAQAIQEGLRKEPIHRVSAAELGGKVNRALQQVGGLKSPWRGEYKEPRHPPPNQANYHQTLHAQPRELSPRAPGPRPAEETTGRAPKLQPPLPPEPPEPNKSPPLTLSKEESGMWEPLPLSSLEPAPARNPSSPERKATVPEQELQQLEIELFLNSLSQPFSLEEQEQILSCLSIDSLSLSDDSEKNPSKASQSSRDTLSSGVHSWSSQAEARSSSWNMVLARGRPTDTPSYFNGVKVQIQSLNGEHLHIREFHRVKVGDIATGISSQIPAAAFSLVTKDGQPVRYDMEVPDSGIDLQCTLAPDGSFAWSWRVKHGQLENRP
Kindly state IC50 for each of the entries shown.
Answer with the value and then the unit.

The cases that follow already have their IC50 on record.
| COMPOUND | ENDPOINT VALUE |
| --- | --- |
| COCCn1cc(-c2ccnc(N)n2)c2cc(C#CC(C)(O)c3nccs3)ncc21 (stereo not drawn) [Compound 26] | 19 nM |
| COCCCn1cc(-c2nc(N)ncc2F)c2cc(C#CC(C)(O)C3CC3)nc(C(F)F)c21 (stereo not drawn) [Compound 96] | 170 nM |
| Cc1nc(C#CC(C)(O)C2CC2)cc2c(-c3nc(N)ncc3F)cn(C3COC3)c12 (stereo not drawn) [Compound 133] | 50 nM |

Each compound below has a recorded value; state its IC50.
1. CCCN1CC(n2cc(-c3nc(N)ncc3F)c3cc(C#CC(C)(O)C4CC4)ncc32)C1 (stereo not drawn) [Compound 139]
2. CN(C)C(=O)CCn1cc(-c2ccnc(N)n2)c2cc(C#CC(C)(C)O)ncc21 [Compound 50]
3. COCCC(C)(O)C#Cc1cc2c(-c3ccnc(N)n3)cn(CC(C)(C)O)c2cn1 (stereo not drawn) [Compound 39]
4. COCCn1cc(-c2nc(N)ncc2Cl)c2cc(C#CC(C)(C)O)ncc21 [Compound 25]

-- reply
["98 nM", "230 nM", "1600 nM", "20 nM"]

###

system: L-363 cells; assay: Biological Assay C: antiproliferative activity on L-363 cells (CellTiter-Glo); type: cell-based, human; settings: Homo sapiens, L-363, 72 h, 72 hr treatment; averaged values
Kindly note that classification relies on EC50 with these boundaries: bottom end: < 0.06 µM; midrange: ≥ 0.06 µM and < 1 µM; top end: ≥ 1 µM

| MOLECULE | TESTED SYSTEM | CATEGORY |
| --- | --- | --- |
| CCOCCN1CC(n2cc(-c3nc(N)ncc3F)c3cc(C#CC(C)(O)C4CC4)ncc32)C1 (centres unmarked) | L-363 cells | midrange |
| CCN1CCC(n2cc(-c3nc(N)ncc3F)c3cc(C#CC(C)(C)O)ncc32)CC1 | L-363 cells | bottom end |
| CN1CC(n2cc(-c3nc(N)ncc3F)c3cc(C#CC(C)(O)C4CC4)nc(C4CC4)c32)C1 (centres unmarked) | L-363 cells | bottom end |
| CC(C)n1cc(-c2ccnc(N)n2)c2cc(C#CC(C)(C)O)ncc21 | L-363 cells | bottom end |
| CC(C)(O)C#Cc1cc2c(-c3nc(N)ncc3F)c[nH]c2cn1 | L-363 cells | midrange |

-- ask Assign a category based on measured EC50 for CCN1CCC(n2cc(-c3nc(N)ncc3F)c3cc(C#CC(C)(O)C4CC4)ncc32)C1 (centres unmarked) and give only the class name.
-- reply bottom end

-- ask Lab note: sort CC(C)(O)Cn1cc(-c2ccnc(N)n2)c2cc(C#CC3(O)CCC3)ncc21 into the matching EC50 band.
-- reply top end

-- ask Textbook exercise: identify the category of the molecule given here, CC(C)(O)C#Cc1cc2c(-c3nc(N)ncc3F)cn(C3COC3)c2cn1 , according to its measured value.
-- reply bottom end

-- ask Tag the class for COCCCn1cc(-c2ccnc(N)n2)c2cc(C#CC(C)(C)O)ncc21
-- reply midrange

###

system: L-363 cells; assay: Biological Assay C: antiproliferative activity on L-363 cells (CellTiter-Glo); assay type: cell-based, human; conditions: Homo sapiens, L-363, 72 h, 72 hr treatment; averaged values
RESULT TYPE: EC50 (nM)
Give bare numbers, in nM.

As a guide, the following entries are already answered.
| COMPOUND | MEASURE UNIT | EC50 |
| --- | --- | --- |
| CC(C)(O)C#Cc1cc2c(-c3nc(N)ncc3C(F)(F)F)cn(CC3CCOCC3)c2cn1 [Compound 71] | nM | 520 |
| CCNc1nccc(-c2c[nH]c3cnc(C#CC(C)(C)O)cc23)n1 [Compound 48] | nM | 650 |
| CC(=O)NCCCn1cc(-c2ccnc(N)n2)c2cc(C#CC(C)(C)O)ncc21 [Compound 148] | nM | 7600 |

Proceeding to the next compound to report its EC50.
-- ask Output measured EC50 for this item: CC(C)(O)C#Cc1cc2c(-c3ccnc(N)n3)cn(CC3CCNCC3)c2cn1 [Compound 114]
-- reply 1500

###

Provide the recorded pEC50 for the entries that follow.
test system: L-363 cells; assay: Biological Assay C: antiproliferative activity on L-363 cells (CellTiter-Glo); assay type: cell-based, human; conditions: Homo sapiens, L-363, 72 h, 72 hr treatment; averaged values
Give bare numbers, as −log10 of the molar value.

| COMPOUND | TESTED SYSTEM | pEC50 |
| --- | --- | --- |
| CC(O)(C#Cc1cc2c(-c3nc(N)ncc3F)cn(C3CCN(CCC(F)(F)F)C3)c2cn1)C1CC1 (centres unmarked) | L-363 cells | 7.12 |
| CC(C)(O)C#Cc1cc2c(-c3ccnc(N)n3)cn(C(C)(C)CO)c2cn1 | L-363 cells | 6.57 |
| CC(O)(C#Cc1cc2c(-c3nc(N)ncc3F)c[nH]c2cn1)C1CC1 (centres unmarked) | L-363 cells | 7.52 |
| CC(C)n1cc(-c2nc(N)ncc2Cl)c2cc(C#CC(C)(C)O)ncc21 | L-363 cells | 7.24 |
| CC(C)n1cc(-c2ccnc(N)n2)c2cc(C#CC3(O)CCCC3)ncc21 | L-363 cells | 6.35 |

-- ask For COCCCn1cc(-c2nc(N)ncc2F)c2cc(C#CC(C)(C)O)nc(C)c21 , write its pEC50.
-- reply 8.23

###

So I've got a bunch of compounds here, and I need their pEC50 values.
system: L-363 cells; test: Biological Assay C: antiproliferative activity on L-363 cells (CellTiter-Glo); format: cell-based, human; details: Homo sapiens, L-363, 72 h, 72 hr treatment; averaged values
Give bare numbers, as −log10 of the molar value.

Batch request: pEC50 per item, same order as input.
1. CC(C)(O)C#Cc1cc2c(-c3ccnc(N)n3)cn(CCCN3CC(=O)NC3=O)c2cn1
2. CC(C)(O)C#Cc1cc2c(-c3ccnc(N)n3)cn(CC(C)(C)O)c2cn1
3. CC(O)(C#Cc1cc2c(-c3nc(N)ncc3C(F)(F)F)cn(C3COC3)c2cn1)C1CC1 (stereo not shown)

-- reply
1: 5.05; 2: 6.64; 3: 5.82

###

target: Recombinant Human NF-kappaB-Inducing Kinase (NIK/MAP3K14) (Homo sapiens); assay: Biological Assay A: inhibition of recombinant human NIK/MAP3K14 activity (MBP phosphorylation, Mesoscale); format: biochemical; conditions: averaged over all measurements on all batches; read-out: Biochemical (MSD MBP) IC50
pIC50: −log10 of the molar value.
Binary classification by pIC50, with 7 as an inclusive lower bound for Condition met; all other cases are Condition not met.

| COMPOUND | CATEGORY |
| --- | --- |
| CNc1ncc(Cl)c(-c2cn(CC(C)(C)O)c3cnc(C#CC(C)(C)O)cc23)n1 | Condition not met |
| COCCn1cc(-c2ccnc(N)n2)c2cc(C#CC(C)(O)c3ncco3)ncc21 (stereo not drawn) | Condition met |
| COCCn1cc(-c2nc(N)ncc2C#N)c2cc(C#CC(C)(C)O)ncc21 | Condition met |
| CC(C)n1cc(-c2ccnc(N)n2)c2cc(C#CC(C)(C)O)ncc21 | Condition met |
| CC(C)(O)Cn1cc(-c2ccnc(N)n2)c2cc(C#CCO)ncc21 | Condition not met |

-- ask Form field: pIC50 at least 7? Entry: CC(C)C(C)(O)C#Cc1cc2c(-c3ccnc(N)n3)cn(CC(C)(C)O)c2cn1 (stereo not drawn)
-- reply Condition met

-- ask Say whether Cc1c(-c2ccnc(N)n2)c2cc(C#CC(C)(C)O)ncc2n1CC(C)(C)O shows pIC50 of 7 or more.
-- reply Condition met

-- ask Quick check: does CC(C)(O)C#Cc1cc2c(-c3ccnc(N)n3)c[nH]c2cn1 have pIC50 greater than or equal to 7?
-- reply Condition met

-- ask In plain terms: is recorded pIC50 at least 7 for Cc1cnc(N)nc1-c1c[nH]c2cnc(C#CC(C)(C)O)cc12 ?
-- reply Condition met

###

tested on: L-363 cells; test: Biological Assay C: antiproliferative activity on L-363 cells (CellTiter-Glo); assay type: cell-based, human; details: Homo sapiens, L-363, 72 h, 72 hr treatment; averaged values
RESULT TYPE: pEC50
One number for each entry, as −log10 of the molar value.

# annotated cases, reported pEC50 shown
| MOLECULE | pEC50 |
| --- | --- |
| CN1CCN(C(=O)n2cc(-c3nc(N)ncc3F)c3cc(C#CC(C)(O)C4CC4)ncc32)CC1 (stereo not shown) [Compound 134] | 5.52 |
| CC(C)(O)C#Cc1cc2c(-c3nc(N)ncc3F)cn(CC3CCOCC3)c2cn1 [Compound 73] | 6.85 |

// input: 2 molecules below; output: pEC50 for each
1. CC(O)(C#Cc1cc2c(-c3nc(N)ncc3F)cn(C3COC3)c2cn1)C1CC1 (stereo not shown) [Compound 97]
2. CC(C)(O)C#Cc1cc2c(-c3ccnc(N)n3)cn(CC3CCOC3)c2cn1 (stereo not shown) [Compound 6]

-- reply
[7.00, 6.10]

// for each molecule in input: emit pEC50
1. CCN1CCCC(n2cc(-c3nc(N)ncc3F)c3cc(C#CC(C)(O)C4CC4)ncc32)C1 (stereo not shown) [Compound 138]
2. CCN1CCOC(Cn2cc(-c3nc(N)ncc3F)c3cc(C#CC(C)(O)C4CC4)ncc32)C1 (stereo not shown) [Compound 127]
3. CC(O)(C#Cc1cc2c(-c3nc(N)ncc3F)cn(C3CN(C4CC4)C3)c2cn1)C1CC1 (stereo not shown) [Compound 104]
4. CN1CC(n2cc(-c3nc(N)ncc3F)c3cc(C#CC(C)(O)C4CC4)ncc32)C1 (stereo not shown) [Compound 135]
5. CC(C)(O)C#Cc1cc2c(-c3ccnc(N)n3)cn(CC3CCOCC3)c2cn1 [Compound 55]
6. [2H]C([2H])([2H])C(O)(C#Cc1cc2c(-c3nc(N)ncc3F)cn(C3COC3)c2cn1)C1([2H])C([2H])([2H])C1([2H])[2H] (stereo not shown) [Compound 110]

-- reply
7.10
6.72
6.74
7.19
6.01
6.85

State recorded pEC50 for all listed molecules.
1. Cc1c(-c2ccnc(N)n2)c2cc(C#CC(C)(C)O)ncc2n1CC(C)(C)O [Compound 46]
2. CC(C)C(C)(O)C#Cc1cc2c(-c3ccnc(N)n3)cn(CC(C)(C)O)c2cn1 (stereo not shown) [Compound 40]
3. CC(C)(O)C#Cc1cc2c(-c3nc(N)ncc3F)cn(C3CN(C4CC4)C3)c2cn1 [Compound 166]
4. COCc1cnc(N)nc1-c1cn(C(C)C)c2cnc(C#CC(C)(C)O)cc12 [Compound 144]
5. COCc1cnc(N)nc1-c1cn(C(C)C)c2cnc(C#CC(C)(O)C3CC3)cc12 (stereo not shown) [Compound 143]

-- reply
1: 5.44; 2: 5.35; 3: 7.22; 4: 7.80; 5: 6.77

-- ask Look up and report measured pEC50 for this entry: CC(C)(O)C#Cc1cc2c(-c3ccnc(N)n3)cn(CCCN)c2cn1 [Compound 11]
-- reply 6.89
